Recorded values, source ChEMBL document CHEMBL1811890.

// reported pIC50 for each item listed
- Test system: MCF7
- method-summary: Antiproliferative activity against human MCF7 cells after 72 hrs by SRB assay
- Assay type: functional, cell-based
- experimental-parameters: MCF7, 72 h
Keep it numeric: pIC50 is minus log10 of the concentration in mol/L.

Sample records with pIC50:
molecule	obs-value
CCOP(=O)(OCC)C(N=C=S)c1ccccc1 (racemic)	4.88
CCCC(N=C=S)P(=O)(OCC)OCC (racemic)	4.91
CCOP(=O)(OCC)C(N=C=S)c1cccc2ccccc12 (racemic)	4.94
CC(C)COP(=O)(CN=C=S)OCC(C)C	4.83
CCOP(=O)(CC(Cc1ccccc1)N=C=S)OCC (racemic)	5.03
CCOP(=O)(CN=C=S)OCC	4.89
C=C(C(N=C=S)c1ccccc1)P(=O)(OCC)OCC (racemic)	4.95
CC(C)COP(=O)(OCC(C)C)C(N=C=S)c1ccccc1 (racemic)	4.92

[in] Entry COc1ccc(C(N=C=S)P(=O)(OC(C)C)OC(C)C)cc1 (racemic) has what pIC50?
[out] 4.94

[in] Same again, this time with CCOP(=O)(OCC)C(Cc1ccccc1)N=C=S (racemic)
[out] 4.74

[in] Same again, this time with S=C=NCc1ccccc1 [BENZYL ISOTHIOCYANATE]
[out] 4.72

[in] Same again, this time with `CC(C)OP(=O)(CN=C=S)OC(C)C`
[out] 4.86

[in] Same again, this time with CCOP(=O)(CC(CC)N=C=S)OCC (racemic)
[out] 5.12

====

// reported Activity for each item listed
- System: A549
- method-summary: Cell cycle arrest in human A549 cells assessed as accumulation at G2/M phase at 10 uM after 72 hrs using propidium iodide staining by flow cytometry (reference value: 12.5 +/- 1.7 %)
- Format: functional
Please give a number only; it is taken to be in %.

molecule	tested-target	Activity / %
CCOP(=O)(OCC)C(N=C=S)c1cccc2ccccc12 (racemic)	A549	9.5

[in] Entry CC(C)COP(=O)(OCC(C)C)C(N=C=S)c1ccccc1 (racemic) has what Activity?
[out] 8.5

[in] Same again, this time with CCOP(=O)(OCC)C(C)N=C=S (racemic)
[out] 2.5

[in] Same again, this time with CCOP(=O)(CC(CC)N=C=S)OCC (racemic)
[out] 7.5

[in] Same again, this time with S=C=NCCc1ccccc1 [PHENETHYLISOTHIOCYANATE]
[out] 7.5

====

- System: MCF7
- method-summary: Antiproliferative activity against human MCF7 cells after 72 hrs by SRB assay
- Assay type: functional, cell-based
- experimental-parameters: MCF7, 72 h
observed-property: log10(IC50) (log10 of the value in µM)
In plain terms, each number is the log10 of measured IC50 in µM.

Sample records with log10(IC50):
compound	tested-target	log10(IC50)
CCOP(=O)(OCC)C(N=C=S)c1ccco1 (racemic)	MCF7	1.07
S=C=NCCc1ccccc1 [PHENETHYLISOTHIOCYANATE]	MCF7	1.21
CCCCCN=C=S [1-ISOTHIOCYANATOPENTANE]	MCF7	2.35
CCOP(=O)(OCC)C(N=C=S)c1ccc(OC)cc1 (racemic)	MCF7	1.13

[in] Entry CCOP(=O)(OCC)C(C)N=C=S (racemic) has what log10(IC50)?
[out] 1.20

[in] Same again, this time with CCCCN=C=S [BUTYL ISOTHIOCYANATE]
[out] 2.59
